The measurements presented in this section are drawn from paper PMC8725837.

A short record of pIC50 observed with FAK (Homo sapiens) follows.
Sequence (Q05397 whole entry): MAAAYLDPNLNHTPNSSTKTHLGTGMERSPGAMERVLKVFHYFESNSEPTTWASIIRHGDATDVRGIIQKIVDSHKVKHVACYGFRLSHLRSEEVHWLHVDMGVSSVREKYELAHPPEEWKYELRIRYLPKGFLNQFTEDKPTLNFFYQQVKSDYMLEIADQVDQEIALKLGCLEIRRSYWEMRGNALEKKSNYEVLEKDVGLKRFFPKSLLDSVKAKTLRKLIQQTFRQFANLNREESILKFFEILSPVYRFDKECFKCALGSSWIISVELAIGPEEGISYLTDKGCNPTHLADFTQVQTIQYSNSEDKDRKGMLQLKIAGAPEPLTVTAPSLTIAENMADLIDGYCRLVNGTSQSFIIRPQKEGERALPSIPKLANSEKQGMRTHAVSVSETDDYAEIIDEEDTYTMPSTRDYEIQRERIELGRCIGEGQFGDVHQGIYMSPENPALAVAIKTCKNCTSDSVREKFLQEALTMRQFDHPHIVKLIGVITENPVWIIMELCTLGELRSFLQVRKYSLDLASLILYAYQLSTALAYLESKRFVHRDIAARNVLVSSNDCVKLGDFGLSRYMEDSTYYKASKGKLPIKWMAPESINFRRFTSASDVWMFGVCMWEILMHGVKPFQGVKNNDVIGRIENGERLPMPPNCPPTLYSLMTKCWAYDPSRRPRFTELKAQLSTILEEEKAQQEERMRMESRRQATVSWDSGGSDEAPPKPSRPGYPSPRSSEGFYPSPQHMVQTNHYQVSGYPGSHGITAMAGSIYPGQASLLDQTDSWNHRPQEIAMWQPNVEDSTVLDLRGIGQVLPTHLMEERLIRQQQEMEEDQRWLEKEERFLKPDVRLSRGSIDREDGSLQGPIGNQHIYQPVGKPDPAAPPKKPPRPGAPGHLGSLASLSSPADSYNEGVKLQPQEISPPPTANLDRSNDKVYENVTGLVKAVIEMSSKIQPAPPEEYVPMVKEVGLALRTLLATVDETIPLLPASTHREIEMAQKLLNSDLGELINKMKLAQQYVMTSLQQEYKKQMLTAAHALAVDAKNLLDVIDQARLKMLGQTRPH
pIC50: −log10 of the molar value.
MEASURED_ATTRIBUTE: pIC50

COc1cc2nc(-c3ccc(Cl)cc3)cc(OCCCn3ccnc3)c2cc1OC [6e] ... 6.68

(I) COc1cc2nc(-c3ccc(-c4cccs4)cc3)cc(OCCCN3CCN(C)CC3)c2cc1OC [8b]
(II) Fc1ccc(-c2cc(OCCCn3ccnc3)c3cc(Br)ccc3n2)cc1 [16c]
Problem: For this pair, I and II , which shows a numerically higher pIC50? Pick one and reply with its label.
Solution: I

----------
pIC50: −log10 of the molar value.
A short record of pIC50 observed with HER-2 (Homo sapiens, UniProt P04626) follows.
Sequence (P04626 23-1255): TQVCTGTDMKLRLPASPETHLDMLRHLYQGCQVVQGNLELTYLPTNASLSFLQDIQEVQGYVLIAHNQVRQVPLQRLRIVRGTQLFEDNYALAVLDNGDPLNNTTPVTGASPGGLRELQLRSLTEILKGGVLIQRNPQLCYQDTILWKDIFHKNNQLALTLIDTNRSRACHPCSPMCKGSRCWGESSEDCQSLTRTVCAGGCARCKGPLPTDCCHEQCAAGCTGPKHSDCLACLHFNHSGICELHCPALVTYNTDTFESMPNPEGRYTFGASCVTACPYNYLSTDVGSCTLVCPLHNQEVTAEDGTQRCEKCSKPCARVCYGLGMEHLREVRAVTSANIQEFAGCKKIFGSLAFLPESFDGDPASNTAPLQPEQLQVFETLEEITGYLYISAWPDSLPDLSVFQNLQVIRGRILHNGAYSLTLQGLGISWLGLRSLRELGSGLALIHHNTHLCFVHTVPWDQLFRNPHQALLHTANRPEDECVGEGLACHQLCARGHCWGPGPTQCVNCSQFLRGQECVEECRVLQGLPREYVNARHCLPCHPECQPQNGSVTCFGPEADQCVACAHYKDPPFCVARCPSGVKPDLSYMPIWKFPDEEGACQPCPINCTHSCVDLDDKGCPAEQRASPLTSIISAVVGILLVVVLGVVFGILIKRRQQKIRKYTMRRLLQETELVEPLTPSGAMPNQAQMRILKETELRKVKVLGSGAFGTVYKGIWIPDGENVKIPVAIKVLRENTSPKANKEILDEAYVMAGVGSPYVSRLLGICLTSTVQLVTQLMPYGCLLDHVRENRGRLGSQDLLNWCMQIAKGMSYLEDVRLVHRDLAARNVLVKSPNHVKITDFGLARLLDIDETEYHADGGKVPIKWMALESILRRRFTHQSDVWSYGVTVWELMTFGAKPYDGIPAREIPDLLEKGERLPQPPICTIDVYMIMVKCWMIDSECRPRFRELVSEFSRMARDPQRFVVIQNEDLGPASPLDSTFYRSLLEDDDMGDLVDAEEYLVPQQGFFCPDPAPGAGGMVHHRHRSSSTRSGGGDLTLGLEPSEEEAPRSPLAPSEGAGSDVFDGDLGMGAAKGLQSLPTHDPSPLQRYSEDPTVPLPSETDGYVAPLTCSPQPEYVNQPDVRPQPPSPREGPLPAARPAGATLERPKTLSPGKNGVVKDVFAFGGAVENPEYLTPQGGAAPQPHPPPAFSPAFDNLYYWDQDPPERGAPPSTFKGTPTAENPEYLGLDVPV
MEASURED_ATTRIBUTE: pIC50

Reference set (3 entries):
COc1cc2nc(-c3ccc(Cl)cc3)cc(OCCCn3ccnc3)c2cc1OC ... 7.09
COc1cc2nc(-c3ccc(C(F)(F)F)cc3)cc(OCCCNC3CCCCC3)c2cc1OC ... 6.34
COc1ccc(-c2ccc3nc(-c4ccc(Cl)cc4)cc(OCCCN4CCOCC4)c3c2)cc1 [20b] ... 5.78

(P) Clc1ccc(-c2cc(OCCCn3ccnc3)c3cc(-c4ccco4)ccc3n2)cc1 [20e]
(Q) Clc1ccc(-c2cc(OCCCN3CCOCC3)c3cc(-c4ccco4)ccc3n2)cc1 [20f]
Problem: Hey, which is lower on measured pIC50, P or Q ? Pick one and reply with its label.
Solution: Q
(Q: 6.60, P: 7.01)

----------
target: FAK (Homo sapiens)
pIC50: −log10 of the molar value.
MEASURED_ATTRIBUTE: pIC50

Reference set (5 entries):
Clc1ccc(-c2cc(OCCCN3CCOCC3)c3cc4c(cc3n2)OCO4)cc1 [12b] ... 7.15
FC(F)(F)c1ccc(-c2cc(OCCCN3CCOCC3)c3cc4c(cc3n2)OCO4)cc1 [12d] ... 6.56
COc1cc2nc(-c3ccc(Cl)cc3)cc(OCCCN3CCN(C)CC3)c2cc1OC ... 6.67
COc1cc2nc(-c3ccc(C)cc3)cc(OCCCn3ccnc3)c2cc1OC ... 6.69
COc1cc2nc(-c3ccc(Cl)cc3)cc(OCCCNCC3CCCO3)c2cc1OC (stereo not shown) ... 7.43

(a) FC(F)(F)c1ccc(-c2cc(OCCCNC3CCCCC3)c3ccccc3n2)cc1 [10b]
(b) Fc1ccc(-c2cc(OCCCN3CCOCC3)c3cc(Br)ccc3n2)cc1 [16d]
(c) COc1ccc(-c2ccc3nc(-c4ccc(Cl)cc4)cc(OCCCn4ccnc4)c3c2)cc1 [20a]
(d) COc1cc2nc(-c3ccc(Cl)cc3)cc(OCCCNC3CCN(C)CC3)c2cc1OC
(e) CN1CCN(CCCOc2cc(-c3ccc(C(F)(F)F)cc3)nc3ccccc23)CC1 [10a]
Problem: Hey, quick one: sort these by pIC50, largest value first please. // rank by listing labels in the order requested
Solution: b, d, c, a, e
(b: 7.76, d: 7.34, c: 7.11, a: 6.78, e: 6.52)

----------
melting point values by entry

FC(F)(F)c1ccc(-c2cc(OCCCn3ccnc3)c3cc4c(cc3n2)OCO4)cc1 [12c] ... 125 to 127 °C

Problem: Give the measured melting point of COc1cc2nc(-c3ccc(C)cc3)cc(OCCCN3CCN(C)CC3)c2cc1OC [6k] .
Solution: 128 to 130 °C

Problem: Would you kindly repeat that for Clc1ccc(-c2cc(OCCCn3ccnc3)c3cc(Br)ccc3n2)cc1 [16a] ?
Solution: 149 to 151 °C

Problem: Would you kindly repeat that for FC(F)(F)c1ccc(-c2cc(OCCCN3CCOCC3)c3cc4c(cc3n2)OCO4)cc1 [12d] ?
Solution: 138 to 140 °C

Problem: Would you kindly repeat that for Clc1ccc(-c2cc(OCCCN3CCOCC3)c3cc4c(cc3n2)OCO4)cc1 [12b] ?
Solution: 153 to 155 °C

Problem: Would you kindly repeat that for COc1cc2nc(-c3ccc(Cl)cc3)cc(OCCCn3ccnc3)c2cc1OC [6e] ?
Solution: 209 to 211 °C

----------
molecular target: VEGFR-2 (Homo sapiens)
Sequence (P35968 20-1356): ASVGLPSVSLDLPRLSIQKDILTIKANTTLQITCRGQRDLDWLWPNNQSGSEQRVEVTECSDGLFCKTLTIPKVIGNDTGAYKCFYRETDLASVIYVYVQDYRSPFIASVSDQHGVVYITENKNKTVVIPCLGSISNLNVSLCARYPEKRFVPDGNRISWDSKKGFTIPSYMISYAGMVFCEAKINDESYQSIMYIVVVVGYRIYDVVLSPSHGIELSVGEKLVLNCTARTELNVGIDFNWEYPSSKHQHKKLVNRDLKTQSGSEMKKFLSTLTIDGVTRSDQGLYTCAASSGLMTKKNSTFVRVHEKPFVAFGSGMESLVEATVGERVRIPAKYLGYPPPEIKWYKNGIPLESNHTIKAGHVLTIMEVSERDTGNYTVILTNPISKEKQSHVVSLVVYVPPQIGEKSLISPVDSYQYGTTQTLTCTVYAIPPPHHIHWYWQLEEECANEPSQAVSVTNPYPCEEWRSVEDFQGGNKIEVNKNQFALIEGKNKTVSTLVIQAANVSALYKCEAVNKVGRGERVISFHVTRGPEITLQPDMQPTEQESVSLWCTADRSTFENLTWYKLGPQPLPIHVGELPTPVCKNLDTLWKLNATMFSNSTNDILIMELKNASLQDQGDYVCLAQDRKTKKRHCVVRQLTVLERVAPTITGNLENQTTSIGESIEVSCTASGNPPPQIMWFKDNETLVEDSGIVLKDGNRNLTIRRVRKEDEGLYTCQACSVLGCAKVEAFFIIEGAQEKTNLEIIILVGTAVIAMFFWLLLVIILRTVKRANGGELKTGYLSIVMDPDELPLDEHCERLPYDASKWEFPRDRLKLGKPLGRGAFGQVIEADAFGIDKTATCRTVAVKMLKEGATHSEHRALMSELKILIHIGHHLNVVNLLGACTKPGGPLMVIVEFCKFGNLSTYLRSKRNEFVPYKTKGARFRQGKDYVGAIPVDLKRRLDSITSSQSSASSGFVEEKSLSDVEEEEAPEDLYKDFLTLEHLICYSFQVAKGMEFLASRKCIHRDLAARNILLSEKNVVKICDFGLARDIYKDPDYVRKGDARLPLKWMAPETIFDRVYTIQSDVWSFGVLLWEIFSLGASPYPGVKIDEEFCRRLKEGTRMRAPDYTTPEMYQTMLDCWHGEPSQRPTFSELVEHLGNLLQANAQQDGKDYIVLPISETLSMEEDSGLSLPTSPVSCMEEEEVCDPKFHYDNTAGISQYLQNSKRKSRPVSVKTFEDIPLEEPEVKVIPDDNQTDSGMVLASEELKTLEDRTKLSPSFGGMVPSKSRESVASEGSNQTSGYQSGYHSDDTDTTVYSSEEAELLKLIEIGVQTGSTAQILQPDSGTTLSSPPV
pIC50: −log10 of the molar value.
MEASURED_ATTRIBUTE: pIC50

Reference set (5 entries):
COc1cc2nc(-c3ccc(-c4cccs4)cc3)cc(OCCCN3CCN(C)CC3)c2cc1OC ... 5.08
Clc1ccc(-c2cc(OCCCN3CCOCC3)c3cc(Br)ccc3n2)cc1 [16b] ... 5.49
COc1cc2nc(-c3ccc(Cl)cc3)cc(OCCCNC3CCN(C)CC3)c2cc1OC ... 6.39
COc1cc2nc(-c3ccc(C)cc3)cc(OCCCNC3CCN(C)CC3)c2cc1OC ... 5.55
FC(F)(F)c1ccc(-c2cc(OCCCNC3CCCCC3)c3ccccc3n2)cc1 [10b] ... 5.06

(A) COc1ccc(-c2ccc3nc(-c4ccc(F)cc4)cc(OCCCn4ccnc4)c3c2)cc1 [20c]
(B) FC(F)(F)c1ccc(-c2cc(OCCCn3ccnc3)c3cc4c(cc3n2)OCO4)cc1 [12c]
(C) Clc1ccc(-c2cc(OCCCn3ccnc3)c3cc(-c4ccco4)ccc3n2)cc1 [20e]
Problem: Hi! Can you put these in order of pIC50, lowest number first? // rank by listing labels in the order requested
Solution: A, C, B
(A: 5.05, C: 6.62, B: 7.24)

----------
A short record of IC50 observed with EGFR (Homo sapiens) follows.
MEASURED_ATTRIBUTE: IC50 (nM)

COc1ccc(-c2ccc3nc(-c4ccc(F)cc4)cc(OCCCN4CCOCC4)c3c2)cc1 [20d] ... 147
Clc1ccc(-c2cc(OCCCN3CCOCC3)c3cc(-c4ccco4)ccc3n2)cc1 [20f] ... 24.8
Clc1ccc(-c2cc(OCCCn3ccnc3)c3cc(-c4ccco4)ccc3n2)cc1 [20e] ... 33.7

(I) Clc1ccc(-c2cc(OCCCn3ccnc3)c3cc4c(cc3n2)OCO4)cc1 [12a]
(II) COc1ccc(-c2ccc3nc(-c4ccc(F)cc4)cc(OCCCn4ccnc4)c3c2)cc1 [20c]
(III) FC(F)(F)c1ccc(-c2cc(OCCCNC3CCCCC3)c3ccccc3n2)cc1 [10b]
Problem: Hey, quick one: sort these by IC50, largest value first please. // rank by listing labels in the order requested
Solution: II, III, I

----------
A short record of IC50 observed with UniProtKB Q06187 follows.
MEASURED_ATTRIBUTE: IC50 (µM)

Reference set (5 entries):
Clc1ccc(-c2cc(OCCCn3ccnc3)c3cc(-c4ccco4)ccc3n2)cc1 [20e] ... 0.271
FC(F)(F)c1ccc(-c2cc(OCCCn3ccnc3)c3cc4c(cc3n2)OCO4)cc1 [12c] ... 0.0995
FC(F)(F)c1ccc(-c2cc(OCCCNC3CCCCC3)c3ccccc3n2)cc1 [10b] ... 2.98
Clc1ccc(-c2cc(OCCCN3CCOCC3)c3cc(-c4ccco4)ccc3n2)cc1 [20f] ... 0.0235
COc1cc2nc(-c3ccc(C(F)(F)F)cc3)cc(OCCCNC3CCCCC3)c2cc1OC ... 4.76

(A) COc1ccc(-c2ccc3nc(-c4ccc(F)cc4)cc(OCCCN4CCOCC4)c3c2)cc1 [20d]
(B) COc1ccc(-c2ccc3nc(-c4ccc(Cl)cc4)cc(OCCCN4CCOCC4)c3c2)cc1 [20b]
Problem: Hey, which is lower on measured IC50, A or B ? Pick one and reply with its label.
Solution: A

----------
test system: MDMBA-231 breast cancer cell line; assay: MTT antiproliferative assay, MDMBA-231; assay type: cell-based; settings: 10 µM, 24 h
MEASURED_ATTRIBUTE: GI% MDMBA-231 (%)
Entry rule: numbers only, all in %.

Reference set (4 entries):
CN1CCN(CCCOc2cc(-c3ccc(C(F)(F)F)cc3)nc3ccccc23)CC1 [10a] ... 37.15
COc1cc2nc(-c3ccc(C(F)(F)F)cc3)cc(OCCCNCC3CCCO3)c2cc1OC (centres unmarked) [6i] ... 81.60
Clc1ccc(-c2cc(OCCCN3CCOCC3)c3cc(-c4ccco4)ccc3n2)cc1 [20f] ... 82.58
COc1cc2nc(-c3ccc(Cl)cc3)cc(OCCCNC3CCCCC3)c2cc1OC [6b] ... 19.67

# ---- query molecule ----
Problem: Give the measured GI% MDMBA-231 of COc1ccc(-c2ccc3nc(-c4ccc(F)cc4)cc(OCCCn4ccnc4)c3c2)cc1 [20c] .
Solution: 32.11

----------
A short record of pIC50 observed with BTK (Homo sapiens) follows.
Sequence (Q06187 whole entry): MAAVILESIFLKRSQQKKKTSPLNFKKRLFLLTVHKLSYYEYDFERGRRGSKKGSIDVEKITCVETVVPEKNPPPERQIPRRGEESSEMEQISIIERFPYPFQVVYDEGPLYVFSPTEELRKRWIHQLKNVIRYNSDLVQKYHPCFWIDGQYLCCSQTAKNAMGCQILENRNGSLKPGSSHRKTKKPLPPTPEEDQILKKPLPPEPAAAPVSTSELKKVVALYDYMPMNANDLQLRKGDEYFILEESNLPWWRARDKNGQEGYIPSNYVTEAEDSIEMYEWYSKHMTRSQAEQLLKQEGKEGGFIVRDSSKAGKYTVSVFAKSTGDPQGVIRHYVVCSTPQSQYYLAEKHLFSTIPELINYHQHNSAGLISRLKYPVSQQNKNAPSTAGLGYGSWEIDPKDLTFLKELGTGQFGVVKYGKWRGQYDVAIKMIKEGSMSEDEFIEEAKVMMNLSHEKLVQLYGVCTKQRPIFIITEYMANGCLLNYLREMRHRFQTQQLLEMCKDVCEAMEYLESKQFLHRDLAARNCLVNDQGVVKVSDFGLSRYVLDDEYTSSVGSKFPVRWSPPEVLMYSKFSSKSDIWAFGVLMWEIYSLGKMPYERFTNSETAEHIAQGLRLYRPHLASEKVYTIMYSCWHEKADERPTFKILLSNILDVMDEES
pIC50: −log10 of the molar value.
MEASURED_ATTRIBUTE: pIC50

Reference set (3 entries):
COc1ccc(-c2ccc3nc(-c4ccc(F)cc4)cc(OCCCn4ccnc4)c3c2)cc1 [20c] ... 5.06
COc1cc2nc(-c3ccc(Cl)cc3)cc(OCCCNC3CCN(C)CC3)c2cc1OC ... 5.65
Fc1ccc(-c2cc(OCCCn3ccnc3)c3cc(Br)ccc3n2)cc1 [16c] ... 5.25

(a) Fc1ccc(-c2cc(OCCCN3CCOCC3)c3cc(Br)ccc3n2)cc1 [16d]
(b) Clc1ccc(-c2cc(OCCCn3ccnc3)c3cc4c(cc3n2)OCO4)cc1 [12a]
(c) Clc1ccc(-c2cc(OCCCn3ccnc3)c3cc(Br)ccc3n2)cc1 [16a]
(d) COc1ccc(-c2ccc3nc(-c4ccc(Cl)cc4)cc(OCCCn4ccnc4)c3c2)cc1 [20a]
Problem: Hey, quick one: sort these by pIC50, largest value first please. // rank by listing labels in the order requested
Solution: b, a, c, d
